- assay.info: ovarian cancer cell viability with rucaparib, profiling panel, oncology-focused library, rucaparib conditional (AID 1508598)
- experimental.context: patient-derived ovarian cancer cells, CellTiter-Glo viability, 144 h; at 0.000305 µM; OCI-C5x cells; with rucaparib 10 µM; stronger effect = lower value; 100% = cells with rucaparib alone
Quick reference for viability among some compounds
reported.property: viability (%)

- compound: "O=C(CCc1ccc(O)cc1)c1c(O)cc(O)cc1O"
  reported: 108
- compound: "COc1c(C)c2c(c(O)c1C/C=C(\\C)CCC(=O)O)C(=O)OC2"
  reported: 117
- compound: "CN1CC[C@H](c2c(O)cc(O)c3c(=O)cc(-c4ccccc4Cl)oc23)[C@H](O)C1"
  reported: 109
- compound: "Cc1nc(Nc2ncc(C(=O)Nc3c(C)cccc3Cl)s2)cc(N2CCN(CCO)CC2)n1"
  reported: 102
- compound: "Clc1ccc(Nc2nnc(Cc3ccncc3)c3ccccc23)cc1"
  reported: 121
- compound: "Nc1cccc2c1CN(C1CCC(=O)NC1=O)C2=O (stereo unspecified)"
  reported: 116
- compound: "Nc1nc(Cl)nc2c1ncn2[C@@H]1O[C@H](CO)[C@@H](O)[C@@H]1F"
  reported: 115
- compound: "Cc1ccc(-n2nc(C(C)(C)C)cc2NC(=O)Nc2ccc(OCCN3CCOCC3)c3ccccc23)cc1"
  reported: 105
- compound: "CC/C(=C(\\c1ccccc1)c1ccc(OCCN(C)C)cc1)c1ccccc1"
  reported: 93.5
- compound: "O=c1[nH]c(=O)n([C@H]2CCCO2)cc1F"
  reported: 106
- compound: "O=C(CCCCCCC(=O)Nc1ccccc1)NO"
  reported: 108

###

- assay.info: HTB85 osteosarcoma cell growth inhibition, synergistic combos for chromothripsis tumors, BGB or cisplatin IC20 combos (AID 1671453);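 further: cells exposed for 96 hours before readout; 0% = vehicle DMSO and 100% = high DMSO killing control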
- experimental.context: HTB85 osteosarcoma cells, drug combinations, measured here: with BGB IC20, at 0.5 µM, stronger effect = higher value
// map inhibition to label using low group = under -40%, middle group = from -40% up to -20%, high group = -20% and over

- mol.smiles: "CCn1nc(C(=O)O)c(=O)c2cc3c(cc21)OCO3"
  class.assignment: "low group"
- mol.smiles: "N=c1ccn2c(n1)O[C@H]1[C@H](O)[C@@H](CO)O[C@H]12"
  class.assignment: "high group"
- mol.smiles: "C[C@@H](CN1CC(=O)NC(=O)C1)N1CC(=O)NC(=O)C1"
  class.assignment: "middle group"
- mol.smiles: "O=C(CCCCCCC(=O)Nc1ccccc1)NO"
  class.assignment: "high group"
- mol.smiles: "CN1CCN(c2c(F)cc3c(=O)c(C(=O)O)cn4c3c2OCN4C)CC1"
  class.assignment: "middle group"
- mol.smiles: "Cc1ccc2nc(N)[nH]c(=O)c2c1Sc1ccncc1"
  class.assignment: "middle group"
- mol.smiles: "CN1CCN(c2c(F)cc3c(=O)c(C(=O)O)cn(CCF)c3c2F)CC1"
  class.assignment: "high group"
- mol.smiles: "N=C(N=C(N)N)N1CCOCC1"
  class.assignment: "high group"
- mol.smiles: "O=c1cc[nH]c(=O)[nH]1"
  class.assignment: "low group"
- mol.smiles: "O=c1c(O)c(-c2ccc(O)c(O)c2)oc2cc(O)ccc12"
  class.assignment: "high group"

###

- assay.info: survival rescue of mitochondrial mutant cells in low glucose, primary screen, MELAS cybrids, Rieske KO mouse fibroblasts, CellTiter-Glo (AID 1508586);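 further: z relative to plate mean and SD of compound and empty wells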
- experimental.context: MELAS cybrid survival, CellTiter-Glo 48 h, stronger effect = higher value
Quick reference for z-score among some compounds

- compound: "CCC(C)(Oc1ccc(C2(c3ccc(OC(C)(CC)C(=O)O)cc3)CCCCC2)cc1)C(=O)O (centres undefined)"
  z-score: -0.322
- compound: "CC1=C(C(=O)OC(C)C)C(c2cccc([N+](=O)[O-])c2)C(C(=O)OC2CN(C(c3ccccc3)c3ccccc3)C2)=C(N)N1 (centres undefined)"
  z-score: -0.296
- compound: "CCc1cccc(CC)c1NC(=O)CN(CC(=O)O)CC(=O)O"
  z-score: 0.304
- compound: "Cc1cc2c(cc1CC(=O)c1sccc1S(=O)(=O)Nc1onc(C)c1Cl)OCO2"
  z-score: -0.207
- compound: "COc1ccc(C(C)=O)c(O)c1"
  z-score: -0.383
- compound: "CC(=O)c1ccc2c(c1)N(CCCN1CCC(CCO)CC1)c1ccccc1S2"
  z-score: -0.364
- compound: "NC(=O)C(c1ccccc1)(c1ccccc1)[C@@H]1CCN(CCc2ccc3c(c2)CCO3)C1"
  z-score: -1.84
- compound: "CC1=C(/C=C/C(C)=C/C=C/C(C)=C/C(=O)Nc2ccc(O)cc2)C(C)(C)CCC1"
  z-score: 0.416
- compound: "Cc1cc(O)c2c(c1)C(=O)c1cccc(O)c1C2=O"
  z-score: -0.322
- compound: "CC1=C(C)C(=O)C(CCCCC#CCCCC#CCO)=C(C)C1=O"
  z-score: 0.195
- compound: "CC[C@H]1OC(=O)[C@H](C)[C@@H](O[C@H]2C[C@@](C)(OC)[C@@H](O)[C@H](C)O2)[C@H](C)[C@@H](O[C@@H]2O[C@H](C)C[C@H](N(C)C)[C@H]2O)[C@](C)(O)C[C@@H](C)C(=O)[C@H](C)[C@@H](O)[C@]1(C)O"
  z-score: -0.415
- compound: "O=C(Oc1ccccc1C(=O)O)c1ccccc1O"
  z-score: -0.0904
- compound: "CN(C)C(=O)COC(=O)Cc1ccc(OC(=O)c2ccc(N=C(N)N)cc2)cc1"
  z-score: -0.283
- compound: "O=c1[nH]c(=O)n([C@H]2C[C@H](O)[C@@H](CO)O2)cc1C(F)(F)F"
  z-score: 0.972
- compound: "N#Cc1cc(NC(=O)C(=O)O)c(Cl)c(NC(=O)C(=O)O)c1"
  z-score: -0.414
- compound: "CC(=O)Oc1cc(C(C)C)c(OCCN(C)C)cc1C"
  z-score: 0.238
- compound: "CCC(=O)OCC(=O)[C@@]1(OC(=O)CC)[C@@H](C)C[C@H]2[C@@H]3CCC4=CC(=O)C=C[C@]4(C)[C@@]3(Cl)[C@@H](O)C[C@@]21C"
  z-score: 0.616
- compound: "CC(C(=O)O)c1ccc2c(c1)CC(=O)c1ccccc1S2 (centres undefined)"
  z-score: -0.314
- compound: "Cc1c(F)c(N2CCNC(C)C2)cc2c1c(=O)c(C(=O)O)cn2C1CC1 (centres undefined)"
  z-score: 0.28

###

Quick reference for z-score among some compounds
- assay.info: viability rescue of complex I mutant cybrids, primary screen, cell-based, galactose medium, ATP luminescence (AID 1645843);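 further: positive z means more ATP and so rescue of galactose-driven cybrid death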
- experimental.context: complex I mutant cybrid cells, 72 h, stronger effect = higher value
Activity calls are given as the source filed them.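 The calls were made as follows: active = z-score of at least 1.8 in each of two replicates, scored against plate mean and spread of sample wells; inactive = the rest.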
reported.property: z-score

- compound: "O=C(O)Cc1cccc2ccccc12"
  reported: "0.46 (inactive)"
- compound: "CC(C)OC(=O)c1cc2c(OCC(O)CNC(C)(C)C)cccc2[nH]1 (configuration not stated)"
  reported: "-0.48 (inactive)"
- compound: "O=C(O)CP(=O)(O)O"
  reported: "1.15 (inactive)"
- compound: "O=C(O)Cc1sc(-c2ccccc2)nc1-c1ccc(Cl)cc1"
  reported: "1.28 (inactive)"
- compound: "O=C(O)c1cc2cc(F)ccc2[nH]1"
  reported: "1.04 (inactive)"
- compound: "NCCCC(N)(C(=O)O)C(F)F (configuration not stated)"
  reported: "0.11 (inactive)"
- compound: "COc1cc2c(Nc3ccc(NC(=O)c4ccccc4)cc3)ncnc2cc1OCCCN1CCOCC1"
  reported: "-0.64 (inactive)"
- compound: "C=C[C@H]1CN2CC[C@H]1C[C@H]2[C@H](O)c1ccnc2ccc(OC)cc12"
  reported: "-0.735 (inactive)"
- compound: "O=C(O)COC(=O)Cc1ccccc1Nc1c(Cl)cccc1Cl"
  reported: "0.67 (inactive)"
- compound: "O=C1NC(=O)[C@@]2(CCOc3ccc(F)cc32)N1"
  reported: "0.695 (inactive)"
- compound: "Cc1cc(O)c2c(c1)C(=O)c1cc(O)cc(O)c1C2=O"
  reported: "0.08 (inactive)"
- compound: "OCCN1CCN(CC/C=C2/c3ccccc3Sc3ccc(C(F)(F)F)cc32)CC1"
  reported: "-1.04 (inactive)"

###

- assay.info: polyglutamine-triggered caspase-3 activation inhibitors, cell-based (AID 1583)
- experimental.context: polyglutamine-induced caspase-3 activation, cell assay; stronger effect = higher value; concentration not given here
Quick reference for inhibition among some compounds
reported.property: inhibition (%)

- compound: "OCc1ccccc1O[C@@H]1O[C@H](CO)[C@@H](O)[C@H](O)[C@H]1O"
  reported.property: "inhibition"
  reported: -10.9
- compound: "O=C(O)CCC(=O)OC[C@@H](NC(=O)C(Cl)Cl)[C@H](O)c1ccc([N+](=O)[O-])cc1"
  reported.property: "inhibition"
  reported: 29.9
- compound: "O=c1c(O)c(-c2ccc(O)cc2O)oc2cc(O)cc(O)c12"
  reported.property: "inhibition"
  reported: -17.6
- compound: "CC1(C)S[C@@H]2C(N3C(=O)[C@@H](c4ccccc4)NC3(C)C)C(=O)N2[C@H]1C(=O)O (stereo partly specified)"
  reported.property: "inhibition"
  reported: 4.02
- compound: "CN1CC(=O)N=C1N"
  reported.property: "inhibition"
  reported: -27.2
- compound: "COc1ccc2cc([C@H](C)C(=O)O)ccc2c1"
  reported.property: "inhibition"
  reported: -27.8
- compound: "C[N+]1(C)CCCC(OC(=O)C(O)(c2ccccc2)c2ccccc2)C1 (stereo unspecified)"
  reported.property: "inhibition"
  reported: -22.1
- compound: "c1coc(CNc2ncnc3nc[nH]c23)c1"
  reported.property: "inhibition"
  reported: 6.38
- compound: "CC(C)(C)c1ccc(C(O)CCCN2CCC(C(O)(c3ccccc3)c3ccccc3)CC2)cc1 (stereo unspecified)"
  reported.property: "inhibition"
  reported: 70.6
- compound: "O=C(O)c1cc(=O)c2cccc(O)c2[nH]1"
  reported.property: "inhibition"
  reported: -21.7
- compound: "CN(C)CCN(Cc1cccs1)c1ccccn1"
  reported.property: "inhibition"
  reported: 23.7

Reference for the values: PubChem BioAssay
